molecular target: human κ opioid receptor (OPRK1) (Homo sapiens, UniProt P41145); construct: expressed in transfected cells; host or cells: CHO-K1; assay: Agonist activity: inhibition of forskolin-stimulated cAMP release (HTRF) in CHO-K1 cells stably expressing opioid receptors; assay type: cell-based; conditions: relative to Difelikefalin = 100%
Sequence (P41145 whole entry): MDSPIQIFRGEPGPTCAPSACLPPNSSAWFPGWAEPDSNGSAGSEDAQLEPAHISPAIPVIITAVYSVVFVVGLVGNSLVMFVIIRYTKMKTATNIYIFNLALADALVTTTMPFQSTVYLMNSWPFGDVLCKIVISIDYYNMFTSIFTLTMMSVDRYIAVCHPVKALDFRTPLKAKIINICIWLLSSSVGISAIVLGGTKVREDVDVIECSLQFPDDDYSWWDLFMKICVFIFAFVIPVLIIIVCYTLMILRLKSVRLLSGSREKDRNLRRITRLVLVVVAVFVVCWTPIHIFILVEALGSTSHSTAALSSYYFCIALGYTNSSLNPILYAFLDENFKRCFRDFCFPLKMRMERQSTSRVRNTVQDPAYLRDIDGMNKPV
TEST_READOUT: Relative Activity %
Just the number plus its unit, please.

Some solved entries appear below for comparison.
INSERT INTO measurements (molecule, value_observed) VALUES
  ('CC(C)C[C@@H](NC(=O)[C@@H](Cc1ccc(F)cc1)NC(=O)[C@H](N)Cc1ccccc1)C(=O)N[C@H](CCCCN)C(=O)N1CCC(N)(C(=O)NCCOCCOCC(=O)N[C@@H](CCCCNC(=O)COCCOCCOCCOCCNC(=O)CC[C@H](NC(=O)CCCCCCCCCCCCCCCCC(=O)O)C(=O)O)C(N)=O)CC1 [Compound 7]', '10.5%'),
  ('CC(C)C[C@@H](NC(=O)[C@@H](Cc1ccc(Cl)cc1)NC(=O)[C@H](N)Cc1ccccc1)C(=O)N[C@H](CCCCN)C(=O)N1CCC(N)(C(=O)NCCOCCOCC(=O)N[C@@H](CCCCNC(=O)COCCOCCOCCOCCNC(=O)CC[C@H](NC(=O)CCCCCCCCCCCCCCCCC(=O)O)C(=O)O)C(N)=O)CC1 [Compound 6]', '12.2%');

# context switch: different molecule, same Relative Activity %
Entry CCOc1ccc(C[C@@H](NC(=O)[C@H](N)Cc2ccccc2)C(=O)N[C@H](CC(C)C)C(=O)N[C@H](CCCCN)C(=O)N2CCC(N)(C(=O)NCCOCCOCC(=O)N[C@@H](CCCCNC(=O)COCCOCCOCCNC(=O)CC[C@H](NC(=O)CCCCCCCCCCCCCCCCC(=O)O)C(=O)O)C(N)=O)CC2)cc1 [Compound 8] : Relative Activity % on human κ opioid receptor (OPRK1) (Homo sapiens, UniProt P41145) = 17.7%
